System: HCT-116
Assay: NCI tumour cell line growth inhibition, 48 h
Calls of active or inactive are those of the source. Rule as the data show it: active = GI50 up to about 1.1 µM and inactive = higher. Where a SMILES comes first, the peptide text is derived from it. Peptide text beside a SMILES is read from it. [ ]: non-standard residue; d: D form. The star is where a group is joined. ξ: configuration not given here. ξD = NC(CC(=O)O)C(=O)O; Ac3c = NC1(C(=O)O)CC1; Boc = CC(C)(C)OC(=O)*; OBn = c1ccc(CO*)cc1
Outcomes: active, inactive

INSERT INTO assay_data (molecule, answer_label) VALUES
  ('COc1ccc(C2SCC(=O)N2c2ccc(-n3c(-c4ccccc4)nc4ccccc4c3=O)cc2)cc1 (configuration not stated)', 'inactive'),
  ('COc1ccc2cc1Oc1ccc(cc1)C[C@H]1c3cc(c(OC)cc3CCN1C)Oc1c(O)c(OC)cc3c1[C@H](C2)N(C)CC3', 'inactive'),
  ('CC(O[Si](C)(C)C)C1C=CC(C)n2c(=O)n(-c3ccccc3)c(=O)n21 (configuration not stated)', 'inactive'),
  ('CC(=O)OC1(C)N=NC2(CCCCC2)O1 (configuration not stated)', 'inactive'),
  ('CC(=O)NC(CS)C(=O)NC(CO)C(=O)NC(CO)C(=O)NC(Cc1c[nH]c2ccccc12)C(=O)N1CCCC1C(=O)NC(CO)C(=O)NC(Cc1c[nH]c2ccccc12)C(=O)NC(Cc1c[nH]cn1)C(=O)NC(CO)C(=O)NC(Cc1c[nH]c2ccccc12)C(=O)NCC(=O)NCC(=O)NC(C)C(=O)NC(CCC(N)=O)C(=O)NC(CCCCN)C(=O)NC(C)C(=O)NC(CCCNC(=N)N)C(=O)NC(CCCCN)C(N)=O (configuration not stated) (Ac-CSSWPSWHSWGGAQKARK-NH2; configuration not given here)', 'inactive'),
  ('COCN1C(N)=C(C(=O)OC(C)(C)C)C2=CC(=O)C=CC21C (configuration not stated)', 'inactive'),
  ('CCOC(=O)c1c(-c2ccccc2)c(C)cn1C', 'inactive'),
  ('OC1(c2ccccc2)c2ccccc2N=C2NCCN21 (configuration not stated)', 'inactive'),
  ('O=C(c1ccccc1)N1CCc2c([nH]c3ccccc23)C1', 'inactive'),
  ('O=C1c2ccccc2C(=O)c2c1ccc1c3ccccc3n(Cc3ccccc3)c21', 'inactive'),
  ('COc1nc(=O)cc(N)n1C1OC(CO)C(O)C1O (configuration not stated)', 'inactive'),
  ('O=S(=O)(O)c1ccc(-c2nnc(-c3ccccn3)nc2-c2ccc(S(=O)(=O)O)o2)o1', 'inactive'),
  ('Cc1ccnc2nc(-c3cccc4ccccc34)cc(O)c12', 'active'),
  ('CCC1(CC)C(=O)N(C(=O)c2cc(OC)c(OC)c(OC)c2)N(C(=O)c2cc(OC)c(OC)c(OC)c2)C1=O', 'inactive'),
  ('OC(c1cccnc1)C(F)(F)c1nc2ccccc2o1 (configuration not stated)', 'inactive'),
  ('Cc1cc(O)c(O)c(Oc2cc(C)cc(O)c2O)c1', 'inactive'),
  ('O=[N+]([O-])c1ccc2nc3ccc([N+](=O)[O-])cn3c2c1', 'inactive'),
  ('CC(C)N(C(=O)C12C3C4C1C1C2C3C41C(=O)C(C)(C)C)C(C)C (configuration not stated)', 'inactive'),
  ('Nc1ccc(C(=O)NN2C(=O)C(Cl)C2c2ccccc2Cl)cc1 (configuration not stated)', 'inactive'),
  ('COc1ccc(C2=C(N)c3c(OC)cccc3C2=O)cc1', 'inactive'),
  ('COC(=O)N1[C@H]2Cc3c(OC)c(C)c(OC)c(OC)c3[C@@H]1/C(=C\c1cc(OC)c(OC)c(C)c1OC)N(Cc1ccccc1)C2=O', 'inactive'),
  ('COc1cc(C2c3cc4c(cc3[C@@H](Nc3ccc(N5CCOCC5)cc3)C3COC(=O)[C@H]23)OCO4)cc(OC)c1O (some centres not stated)', 'inactive'),
  ('O=C(c1ccccc1)c1nc2ccc(Cl)cc2c2c1Cc1ccccc1-2', 'inactive'),
  ('Nc1nc(N)c2ncn(-c3ccc(Cl)c(Cl)c3)c2n1', 'inactive'),
  ('CC1=CCCC(C)(O)C2CC(CCC3(C)OC3CC1)C(C)C(=O)O2 (configuration not stated)', 'inactive'),
  ('COC(=O)c1onc(C2OC(C)(C)OC2C(O)COC(c2ccccc2)(c2ccccc2)c2ccccc2)c1C(=O)OC (configuration not stated)', 'inactive'),
  ('Cn1cnc([N+](=O)[O-])c1SC1=NCCS1', 'inactive'),
  ('COC(=O)C1(NC(=O)C(CC(=O)OCc2ccccc2)NC(=O)OC(C)(C)C)CC1 (configuration not stated) (Boc-[ξD](OBn)-[Ac3c]-OMe)', 'inactive'),
  ('Cc1c(Cc2ccccc2)n(C(C)OCCN(OC(=O)Oc2ccccc2)C(=O)Oc2ccccc2)c(=O)[nH]c1=O (configuration not stated)', 'inactive'),
  ('COc1cc(C2c3cc4c(cc3[C@@H](Nc3cccc(C(C)=O)c3)C3COC(=O)[C@H]23)OCO4)cc(OC)c1O (some centres not stated)', 'active'),
  ('c1ccc2c(c1)cc1c3[nH]c4ccccc4c3ccn21', 'inactive'),
  ('CN1CCN(c2ccc3nc(-c4cc(O)c5c(nc(CO)n5C)c4O)[nH]c3n2)CC1', 'inactive'),
  ('O/N=C1/C(=C/c2ccccc2)CCCC1C(NO)c1ccccc1 (configuration not stated)', 'inactive'),
  ('Cc1c(OCc2ccccc2)c(=O)ccn1CCc1c[nH]c2ccccc12', 'inactive'),
  ('COC(=O)C1(c2ccc(N(C)C)cc2OC)CCCN(C(=O)Oc2ccccc2[N+](=O)[O-])CCc2c1[nH]c1ccccc21 (configuration not stated)', 'inactive'),
  ('N/C(=N\O)N/N=C\c1cc([N+](=O)[O-])cc([N+](=O)[O-])c1O', 'inactive'),
  ('NC(=S)N/N=C1\CCc2ccccc2C1', 'inactive');
